These data points were gathered from patent US20140206681A1.

Target: BTK enzyme (recombinant full-length BTK, hBTK) (Homo sapiens)
Construct: recombinant protein from baculovirus-transfected Sf9 cells: full-length BTK, 6HIS-tag cleaved; 6HIS (cleaved yes); made in house; host or cells: baculovirus-transfected Sf9 cells
Sequence (Q06187 whole entry): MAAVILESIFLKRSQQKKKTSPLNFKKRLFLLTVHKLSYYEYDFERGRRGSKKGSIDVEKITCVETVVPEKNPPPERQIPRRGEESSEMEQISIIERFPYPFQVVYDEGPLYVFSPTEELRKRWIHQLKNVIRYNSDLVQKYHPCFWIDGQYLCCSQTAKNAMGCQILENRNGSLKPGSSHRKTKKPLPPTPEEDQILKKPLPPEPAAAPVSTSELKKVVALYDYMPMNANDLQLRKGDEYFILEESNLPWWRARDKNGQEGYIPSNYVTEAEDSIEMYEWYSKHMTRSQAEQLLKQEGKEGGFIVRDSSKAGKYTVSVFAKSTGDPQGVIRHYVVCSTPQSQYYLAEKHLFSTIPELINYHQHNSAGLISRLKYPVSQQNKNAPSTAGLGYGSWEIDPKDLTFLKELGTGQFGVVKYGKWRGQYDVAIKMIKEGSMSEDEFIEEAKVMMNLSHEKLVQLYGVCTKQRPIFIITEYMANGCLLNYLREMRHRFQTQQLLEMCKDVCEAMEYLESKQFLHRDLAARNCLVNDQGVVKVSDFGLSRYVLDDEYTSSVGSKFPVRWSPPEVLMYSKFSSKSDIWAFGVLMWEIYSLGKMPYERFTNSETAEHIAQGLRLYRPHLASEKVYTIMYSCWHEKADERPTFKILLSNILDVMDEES
Assay: BTK enzyme activity assay, LANCE TR-FRET
Format: biochemical
Settings: 50 pM hBTK, 2 μM biotin-A5-peptide, 25 μM ATP; 60 min compound & enzyme incubation; read-out: IC50 BTK activity value
observed-property: IC50 (nM)

Reference set (2 entries):
smiles_structure=COc1cc(C(=O)Nc2cc(C#N)ccn2)ccc1-c1nc([C@@H]2CC[C@H]3CCC(=O)N3C2)n2ccnc(N)c12 observed_property=IC50 meas_value=1.1
smiles_structure=CC(=O)Nc1nccn2c([C@@H]3CC[C@H]4CCC(=O)N4C3)nc(-c3ccc(C(=O)Nc4cc(C(F)(F)F)ccn4)cc3O)c12 observed_property=IC50 meas_value=4.4

[A] CCOCCOc1cc(C(=O)Nc2cc(C(F)(F)F)ccn2)ccc1-c1nc([C@@H]2CC[C@H]3CCC(=O)N3C2)n2ccnc(N)c12
[B] Nc1nccn2c([C@H]3CC[C@@H]4COCCN4C3)nc(-c3ccc(C(=O)Nc4cc(C(F)(F)F)ccn4)cc3)c12
-- ask Form field 'greater IC50' accepts A or B ; which applies? The response must carry the label of the picked entry.
-- reply A
(A: 3.2 nM, B: 1.8 nM)
